molecular target: PPARγ LBD / CBP (Homo sapiens); assay: PPARγ coactivator recruitment assay (time-resolved FRET), CBP; settings: HTRF, PPARγ LBD, 2 h at RT
Sequence (P37231 238-503 limits assumed): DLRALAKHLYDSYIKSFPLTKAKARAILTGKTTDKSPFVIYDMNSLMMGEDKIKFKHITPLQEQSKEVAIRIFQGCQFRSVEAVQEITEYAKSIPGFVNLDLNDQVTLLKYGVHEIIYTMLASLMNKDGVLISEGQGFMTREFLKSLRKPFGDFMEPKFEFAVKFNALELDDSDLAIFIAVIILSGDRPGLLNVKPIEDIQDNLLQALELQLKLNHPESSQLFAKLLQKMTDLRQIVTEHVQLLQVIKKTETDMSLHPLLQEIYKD
Sequence (Q92793 58-80 partner limits assumed): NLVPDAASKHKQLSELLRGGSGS
MEASURED ENDPOINT: pEC50
Entry type: numeric. Quantity: pEC50, the -log10 of concentration in molar units.

Query: I am curious: what pEC50 value has been reported for O=C(O)CSc1nnc(Br)n1-c1ccc(C2CC2)c2ccccc12 ?
Result: 4.36

----------
// reported EC50 for each item listed
target: PPARγ (Homo sapiens); assay: Gal4 hybrid reporter gene assay PPARγ; settings: Gal4 hybrid reporter, HEK293T, 12-14 h; mean ± SEM, at least three experiments
Sequence (P37231 238-503 limits assumed): as the sequence (P37231 238-503 limits assumed) above
Express your answer in µM, writing the number without its unit.

Solved entries (count: 3):
1) CC(=O)NCCOC(=O)[C@H](Oc1cccc(C(F)(F)F)c1)c1ccc(Cl)cc1 [arhalofenate]; 5.4
2) CCO[C@@H](Cc1ccc(OCCc2ccc(OS(C)(=O)=O)cc2)cc1)C(=O)O; 0.049
3) O=C(O)CSc1nnc(Br)n1-c1ccc(C2CC2)c2ccccc12; 18.5

Query: I am curious: what EC50 value has been reported for O=C(O)[C@H](Oc1cccc(C(F)(F)F)c1)c1ccc(Cl)cc1 ?
Result: 0.47

----------
// reported EC50 for each item listed
Target: PPARα (Homo sapiens)
Sequence (Q07869 239-466 limits assumed): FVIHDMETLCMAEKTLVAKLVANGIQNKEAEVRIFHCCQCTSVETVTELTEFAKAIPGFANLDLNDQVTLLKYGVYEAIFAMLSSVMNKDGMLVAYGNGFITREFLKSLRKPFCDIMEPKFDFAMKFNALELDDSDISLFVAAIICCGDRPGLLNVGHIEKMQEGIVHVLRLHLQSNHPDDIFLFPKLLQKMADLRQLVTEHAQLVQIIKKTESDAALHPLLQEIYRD
Assay: Gal4 hybrid reporter gene assay PPARα
Conditions: Gal4 hybrid reporter, HEK293T, 12-14 h; mean ± SEM, at least three experiments
Express your answer in µM, writing the number without its unit.

Query: Kindly state the measured EC50 obtained for O=C(O)CSc1nnc(Br)n1-c1ccc(C2CC2)c2ccccc12 with PPARα (Homo sapiens).
Result: 20.8

Query: Same read-out for CCO[C@@H](Cc1ccc(OCCc2ccc(OS(C)(=O)=O)cc2)cc1)C(=O)O ?
Result: 0.099

Query: Same read-out for CC(C)(Oc1ccc(C(=O)c2ccc(Cl)cc2)cc1)C(=O)O ?
Result: 6.5

----------
target: PPARγ LBD / SRC-1 (Homo sapiens, UniProt P37231); assay: PPARγ coactivator recruitment assay (time-resolved FRET), SRC-1; format: biochemical; conditions: HTRF, PPARγ LBD, 2 h at RT
Sequence (P37231 238-503 limits assumed): as the sequence (P37231 238-503 limits assumed) above
Sequence (Q15788 676-700 partner limits assumed): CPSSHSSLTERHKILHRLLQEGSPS
MEASURED ENDPOINT: EC50 (µM)
Express your answer in µM, writing the number without its unit.

Query: I am curious: what EC50 value has been reported for O=C(O)CSc1nnc(Br)n1-c1ccc(C2CC2)c2ccccc12 ?
Result: 12

----------
target: pregnane X receptor (PXR) (Homo sapiens); test: Gal4 hybrid reporter gene assay PXR
Sequence (O75469 146-433 limits assumed): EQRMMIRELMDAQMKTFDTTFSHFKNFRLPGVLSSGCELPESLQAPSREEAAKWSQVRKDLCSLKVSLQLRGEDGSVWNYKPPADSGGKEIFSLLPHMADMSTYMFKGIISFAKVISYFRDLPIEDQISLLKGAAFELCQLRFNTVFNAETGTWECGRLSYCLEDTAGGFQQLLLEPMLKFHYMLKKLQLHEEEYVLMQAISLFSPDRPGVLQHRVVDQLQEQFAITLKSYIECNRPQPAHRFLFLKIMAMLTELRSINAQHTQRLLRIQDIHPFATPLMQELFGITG
MEASURED ENDPOINT: EC50 (µM)
Express your answer in µM, writing the number without its unit.

Query: I am curious: what EC50 value has been reported for O=C(O)CSc1nnc(Br)n1-c1ccc(C2CC2)c2ccccc12 ?
Result: 19

The reported numbers originate from paper PMC6131501.
